pIC50: −log10 of the molar value.
Form: system (purified STEP46 enzyme (Homo sapiens)), quantity (pIC50), values below.

// below: answered compounds
{"columns": ["input_smiles", "pIC50"],
 "data": [
  ["CNc1nc(-c2cccnc2)nc2c(F)c(-c3cc(F)ccc3F)ccc12", "5.00 to 6.00"],
  ["O=[N+]([O-])c1ccc2c(c1)CCN2c1nc(-c2cccnc2)nc2ccc(-c3cccc(F)c3F)cc12", "> 6.00"],
  ["CNc1nc(-c2cccnc2)nc2c(F)cc(-c3cccc(F)c3)cc12", "5.00 to 6.00"]
]}

Entry CNc1nc(-c2cccnc2)nc2c(OC)cc(-c3ccccc3C#N)cc12 — recorded pIC50 = 5.00 to 6.00

----------
Quick reference: IC50 of the listed items.
Biological target: purified STEP46 enzyme (Homo sapiens, UniProt P54829)

// below: answered compounds
{"columns": ["input_smiles", "value"],
 "data": [
  ["CNc1nc(-c2cccnc2)nc2cc(F)c(-c3ccc(F)cc3F)cc12", "< 1000 nM"],
  ["CNc1nc(-c2cccnc2)nc2ccc(-c3cccc(-c4nccs4)c3)cc12", "< 1000 nM"],
  ["CNc1nc(-c2cncc(F)c2)nc2cc(-c3cc(F)ccc3F)ccc12", "1000 to 10000 nM"],
  ["CNc1nc(-c2cccnc2)nc2c(F)c(-c3ccc(C#N)cc3)ccc12", "< 1000 nM"]
]}

Known value: purified STEP46 enzyme (Homo sapiens, UniProt P54829) IC50 of the compound CNc1nc(-c2cccnc2F)nc2ccc(-c3cccc(F)c3)cc12 equals 1000 to 10000 nM

----------
Quick reference: IC50 of the listed items.
Target: purified STEP46 enzyme (Homo sapiens, UniProt P54829)
Sequence (P54829 197-565 limits assumed): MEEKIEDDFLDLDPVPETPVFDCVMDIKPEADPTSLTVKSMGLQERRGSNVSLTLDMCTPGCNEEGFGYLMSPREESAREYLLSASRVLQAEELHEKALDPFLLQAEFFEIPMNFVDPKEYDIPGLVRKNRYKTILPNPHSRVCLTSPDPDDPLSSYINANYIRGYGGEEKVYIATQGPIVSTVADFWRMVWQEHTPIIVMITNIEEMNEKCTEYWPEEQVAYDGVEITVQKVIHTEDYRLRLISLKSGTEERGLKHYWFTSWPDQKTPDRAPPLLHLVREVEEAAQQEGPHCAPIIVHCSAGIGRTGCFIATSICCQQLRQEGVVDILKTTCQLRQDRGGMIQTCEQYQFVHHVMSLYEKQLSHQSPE

// below: answered molecules
{"columns": ["molecule", "IC50"],
 "data": [
  ["CNc1nc(-c2cccnc2)nc2c(OC)cc(-c3cccc(C#N)c3)cc12 [Compound 206]", "> 10 µM"],
  ["CNc1nc(-c2cccnc2)nc2cc(-c3ccco3)ccc12 [Compound 317]", "> 10 µM"],
  ["O=[N+]([O-])c1ccc2c(c1)CCN2c1nc(-c2cccnc2)nc2cc(-c3ccc(F)cc3F)ccc12 [Compound 104]", "< 1 µM"],
  ["O=[N+]([O-])c1ccc2c(c1)CCN2c1nc(-c2cccnc2)nc2cc(-c3cccnc3)ccc12 [Compound 106]", "< 1 µM"]
]}

Known value: purified STEP46 enzyme (Homo sapiens, UniProt P54829) IC50 of the molecule CNc1nc(-c2cccnc2)nc2c(F)cc(-c3ccccc3C#N)cc12 [Compound 567] equals < 1 µM

Known value: purified STEP46 enzyme (Homo sapiens, UniProt P54829) IC50 of the molecule CCOc1cc(F)cc(-c2ccc3c(NC)nc(-c4cccnc4)nc3c2)c1 [Compound 145] equals 1 to 10 µM

Known value: purified STEP46 enzyme (Homo sapiens, UniProt P54829) IC50 of the molecule COc1ccc2nc(-c3cccnc3)nc(N3CCc4cc(Br)ccc43)c2c1 [Compound 6] equals > 10 µM

Known value: purified STEP46 enzyme (Homo sapiens, UniProt P54829) IC50 of the molecule CNc1nc(-c2cccnc2)nc2c(F)c(-c3ccc(F)c(F)c3)ccc12 [Compound 517] equals 1 to 10 µM

Known value: purified STEP46 enzyme (Homo sapiens, UniProt P54829) IC50 of the molecule CNc1nc(-c2cccnc2)nc2ccc(-c3ccc4[nH]c(=O)[nH]c4c3)cc12 [Compound 168] equals < 1 µM

Known value: purified STEP46 enzyme (Homo sapiens, UniProt P54829) IC50 of the molecule CNc1nc(-c2cccnc2)nc2c(-c3cc(F)ccc3F)ccc(OC)c12 [Compound 497] equals 1 to 10 µM

Known value: purified STEP46 enzyme (Homo sapiens, UniProt P54829) IC50 of the molecule Fc1ccc(Nc2nc(-c3cccnc3)nc3cc(Cl)ccc23)nc1 [Compound 52] equals 1 to 10 µM

Known value: purified STEP46 enzyme (Homo sapiens, UniProt P54829) IC50 of the molecule CNc1nc(-c2cccnc2)nc2cc(-c3ccc(C#N)cc3)c(F)cc12 [Compound 559] equals 1 to 10 µM

Known value: purified STEP46 enzyme (Homo sapiens, UniProt P54829) IC50 of the molecule CNc1nc(-c2cccnc2)nc2c(-c3ccc(F)cc3F)ccc(OC)c12 [Compound 490] equals 1 to 10 µM

Known value: purified STEP46 enzyme (Homo sapiens, UniProt P54829) IC50 of the molecule CNc1nc(-c2cccnc2)nc2c(F)c(-c3ccncc3)ccc12 [Compound 519] equals 1 to 10 µM

Known value: purified STEP46 enzyme (Homo sapiens, UniProt P54829) IC50 of the molecule Fc1cc(F)cc(-c2ccc3nc(-c4ccnnc4)nc(NCc4ccccn4)c3c2)c1 [Compound 328] equals 1 to 10 µM

Reference for the values: patent US20140315886A1
